Catalogue of kinase still bound, per cent of control values
molecular target: CSNK1G3 (human); experiment: KINOMEscan competition binding; settings: compound 10.0 µM
Expressed in %, but write only the number.

Some molecules with recorded kinase still bound, per cent of control:
MOLECULE	TEST_TARGET	kinase still bound, per cent of control, %
CNC(=O)Nc1ccc(-c2nc(N3CC4CCC(C3)O4)c3cnn(C4CCC5(CC4)OCCO5)c3n2)cc1	CSNK1G3 (human)	48
CCN(CCO)CCCOc1ccc2c(Nc3cc(CC(=O)Nc4cccc(F)c4)[nH]n3)ncnc2c1	CSNK1G3 (human)	100
O=c1[nH]c2ccccc2n1C1CCN(Cc2ccc(-c3nc4cc5[nH]cnc5cc4nc3-c3ccccc3)cc2)CC1	CSNK1G3 (human)	93
N#C/C(=C1/Nc2ccccc2S1)c1ccnc(NCCc2cccnc2)n1	CSNK1G3 (human)	100

Next molecule, kinase still bound, per cent of control to be filled in.
Task item: What value of kinase still bound, per cent of control has been recorded for this entry: COc1cc(C)c(Sc2cnc(NC(=O)c3ccc(CNC(C)C(C)C)cc3)s2)cc1C(=O)N1CCN(C(C)=O)CC1 (stereo not given)
Reply: 100
